Assayed system: Proteasome Macropain subunit MB1 (Homo sapiens)
Sequence (P28074 whole entry): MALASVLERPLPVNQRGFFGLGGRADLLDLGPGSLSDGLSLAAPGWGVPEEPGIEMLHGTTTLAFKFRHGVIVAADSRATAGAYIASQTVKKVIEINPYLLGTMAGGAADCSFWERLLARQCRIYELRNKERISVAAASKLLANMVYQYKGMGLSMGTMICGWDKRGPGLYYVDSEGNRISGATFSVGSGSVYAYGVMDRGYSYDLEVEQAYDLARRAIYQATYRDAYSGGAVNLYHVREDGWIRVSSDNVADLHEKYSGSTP
Assay overview: Inhibition of human 20S proteasome chymotrypsin-like activity using Suc-Leu-Leu-Val-Tyr-AMC as substrate pretreated for 15 mins followed by substrate addition by fluorescence assay
pIC50: −log10 of the molar value.
// N strictly below 7 in pIC50; Y otherwise

Determine whether measured pIC50 meets or exceeds 7 for COC[C@@H]1NC(=O)c2ccccc2OCCOCCOCCOC[C@@H](C(=O)N[C@@H](Cc2ccccc2)C(=O)[C@@]2(C)CO2)NC1=O
N

Then what about the compound COC[C@@H]1NC(=O)c2ccccc2OCCCCCCCCOC[C@@H](C(=O)N[C@@H](Cc2ccccc2)C(=O)[C@@]2(C)CO2)NC1=O ?
N

Then what about the compound COC[C@@H]1NC(=O)c2cccc(OC)c2OCCCCCCOC[C@@H](C(=O)N[C@@H](Cc2ccccc2)C(=O)[C@@]2(C)CO2)NC1=O ?
Y

Then what about the compound COC[C@@H]1NC(=O)c2ccccc2OCCCCCOC[C@@H](C(=O)N[C@@H](Cc2ccccc2)C(=O)[C@@]2(C)CO2)NC1=O ?
Y

Then what about the compound COC[C@@H]1NC(=O)c2ccccc2OCCCCCCCC[C@@H](C(=O)N[C@@H](Cc2ccccc2)C(=O)[C@@]2(C)CO2)NC1=O ?
Y

Then what about the compound COC[C@@H]1NC(=O)c2ncccc2OCCCCCCOC[C@@H](C(=O)N[C@@H](Cc2ccccc2)C(=O)[C@@]2(C)CO2)NC1=O ?
N

Then what about the compound COC[C@@H]1NC(=O)c2cccn2CCCCCCOC[C@@H](C(=O)N[C@@H](Cc2ccccc2)C(=O)[C@@]2(C)CO2)NC1=O ?
Y

Then what about the compound COC[C@@H]1NC(=O)c2ccc(OC)cc2OCCCCCCOC[C@@H](C(=O)N[C@@H](Cc2ccccc2)C(=O)[C@@]2(C)CO2)NC1=O ?
N

Then what about the compound COC[C@@H]1NC(=O)c2ccccc2OCCCCCCCCCOC[C@@H](C(=O)N[C@@H](Cc2ccccc2)C(=O)[C@@]2(C)CO2)NC1=O ?
N

Then what about the compound COC[C@@H]1NC(=O)c2ccnn2CCCCCCOC[C@@H](C(=O)N[C@@H](Cc2ccccc2)C(=O)[C@@]2(C)CO2)NC1=O ?
Y

Then what about the compound COC[C@@H]1NC(=O)c2cccc(c2)OCCCCCCCCOC[C@@H](C(=O)N[C@@H](Cc2ccccc2)C(=O)[C@@]2(C)CO2)NC1=O ?
Y

Then what about the compound COC[C@@H]1NC(=O)c2cnn(C)c2CCCCCCOC[C@@H](C(=O)N[C@@H](Cc2ccccc2)C(=O)[C@@]2(C)CO2)NC1=O ?
Y

Then what about the compound COC[C@@H]1NC(=O)c2cccnc2OCCCCCCOC[C@@H](C(=O)N[C@@H](Cc2ccccc2)C(=O)[C@@]2(C)CO2)NC1=O ?
N

Then what about the compound COC[C@@H]1NC(=O)c2ccnn2CCCCCCCOC[C@@H](C(=O)N[C@@H](Cc2ccccc2)C(=O)[C@@]2(C)CO2)NC1=O ?
Y
